- assay.info: Solubility in phosphate buffer at pH 6.5 by nephelometry
- Type: physicochemical
outcome.measure: solubility kinetic

Input line: Name the recorded solubility kinetic for "Cc1cc(/C=C2\S/C(=N\c3ccccc3)N(C3CCCCC3)C2=O)c(C)n1-c1ccc(F)cc1" .
Output line: 0.8 µg/mL
